Experiment: Half life in Sprague-Dawley rat at 5 mg/kg, po
Type: ADME, organism-based
Design: dose 5 mg/kg, route oral
Conditions: in vivo
valueType: half-life (h)
Numbers only, in h.

Ask | Any idea what its half-life is? The molecule is C#C[C@H]1CC[C@@H](C#N)N1C(=O)CNC1(C)CCN(c2cc(C(=O)O)ccn2)CC1
Reply | 4.7

---

Experiment: Drug level in Zucker rat plasma after 4 hrs at 1 mg/kg
Assay type: ADME, organism-based
Design: dose 1 mg/kg
Details: read-out: Drug uptake
valueType: concentration at 4 h (ng/mL)
Give bare numbers, in ng/mL.

Ask | Any idea what its concentration at 4 h is? The molecule is C#C[C@H]1CC[C@@H](C#N)N1C(=O)CNC1(C)CCN(c2cc(C(=O)O)ccn2)CC1
Reply | 18

---

Target: UniProt:Q6V1X1
Sequence (Q6V1X1 whole entry): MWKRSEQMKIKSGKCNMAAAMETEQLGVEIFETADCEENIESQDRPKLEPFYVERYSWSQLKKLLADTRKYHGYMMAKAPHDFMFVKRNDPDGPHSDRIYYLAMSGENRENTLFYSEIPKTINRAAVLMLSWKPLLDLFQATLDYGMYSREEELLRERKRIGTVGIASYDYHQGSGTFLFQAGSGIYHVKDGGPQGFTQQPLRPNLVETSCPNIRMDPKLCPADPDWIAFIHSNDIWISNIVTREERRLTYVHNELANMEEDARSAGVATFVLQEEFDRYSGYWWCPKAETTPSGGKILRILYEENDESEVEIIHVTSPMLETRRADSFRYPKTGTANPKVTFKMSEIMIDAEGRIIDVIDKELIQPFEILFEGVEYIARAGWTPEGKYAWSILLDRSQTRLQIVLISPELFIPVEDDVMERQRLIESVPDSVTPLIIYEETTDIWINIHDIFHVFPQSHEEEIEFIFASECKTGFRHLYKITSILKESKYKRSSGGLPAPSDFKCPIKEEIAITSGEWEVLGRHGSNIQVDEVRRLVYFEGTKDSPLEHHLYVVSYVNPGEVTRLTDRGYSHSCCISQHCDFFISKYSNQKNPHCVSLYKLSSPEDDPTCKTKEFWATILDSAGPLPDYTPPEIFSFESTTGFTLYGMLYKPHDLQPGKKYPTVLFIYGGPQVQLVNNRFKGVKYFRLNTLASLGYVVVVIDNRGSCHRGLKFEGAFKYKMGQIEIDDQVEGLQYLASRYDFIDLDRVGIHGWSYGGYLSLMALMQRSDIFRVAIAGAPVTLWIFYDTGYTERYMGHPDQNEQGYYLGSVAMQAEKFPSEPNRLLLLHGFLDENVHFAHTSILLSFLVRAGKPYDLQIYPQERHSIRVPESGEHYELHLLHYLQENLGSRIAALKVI
valueType: Ki

Record excerpt, results attached:
C#C[C@H]1CC[C@@H](C#N)N1C(=O)CNC1(C)CCN(c2cc(C(=O)O)ccn2)CC1: > 30 µM
C#C[C@H]1CC[C@@H](C#N)N1C(=O)CNC1(C)CCN(c2ccc(C(=O)O)cn2)CC1: > 30 µM

Shift focus to the following entry.
Ask | Any idea what its Ki is? The compound is C#C[C@H]1CC[C@@H](C#N)N1C(=O)CNC1(C)CCN(c2ccc(C#N)cn2)CC1
Reply | > 30 µM

---

Target: Cytochrome P450 3A4 (Homo sapiens)
Sequence (P08684 whole entry): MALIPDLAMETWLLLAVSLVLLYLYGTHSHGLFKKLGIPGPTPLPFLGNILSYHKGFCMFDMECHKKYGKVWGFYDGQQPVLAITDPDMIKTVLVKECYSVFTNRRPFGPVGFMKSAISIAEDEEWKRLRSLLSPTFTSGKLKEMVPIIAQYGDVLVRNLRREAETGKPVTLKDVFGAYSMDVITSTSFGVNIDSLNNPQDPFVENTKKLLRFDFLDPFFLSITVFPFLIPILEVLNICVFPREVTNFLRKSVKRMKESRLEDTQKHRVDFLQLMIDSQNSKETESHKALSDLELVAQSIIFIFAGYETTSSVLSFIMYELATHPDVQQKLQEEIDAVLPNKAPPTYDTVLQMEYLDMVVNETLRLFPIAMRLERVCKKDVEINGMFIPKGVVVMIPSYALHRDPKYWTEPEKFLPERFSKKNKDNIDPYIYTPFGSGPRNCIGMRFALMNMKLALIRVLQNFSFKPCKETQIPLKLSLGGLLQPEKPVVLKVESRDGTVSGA
valueType: IC50

Ask | Any idea what its IC50 is? The compound is C#C[C@H]1CC[C@@H](C#N)N1C(=O)CNC1(C)CCN(c2cc(C(=O)O)ccn2)CC1
Reply | > 30 µM

---

Target: Voltage-gated inwardly rectifying potassium channel KCNH2 (Homo sapiens, UniProt Q12809)
Sequence (Q12809 whole entry): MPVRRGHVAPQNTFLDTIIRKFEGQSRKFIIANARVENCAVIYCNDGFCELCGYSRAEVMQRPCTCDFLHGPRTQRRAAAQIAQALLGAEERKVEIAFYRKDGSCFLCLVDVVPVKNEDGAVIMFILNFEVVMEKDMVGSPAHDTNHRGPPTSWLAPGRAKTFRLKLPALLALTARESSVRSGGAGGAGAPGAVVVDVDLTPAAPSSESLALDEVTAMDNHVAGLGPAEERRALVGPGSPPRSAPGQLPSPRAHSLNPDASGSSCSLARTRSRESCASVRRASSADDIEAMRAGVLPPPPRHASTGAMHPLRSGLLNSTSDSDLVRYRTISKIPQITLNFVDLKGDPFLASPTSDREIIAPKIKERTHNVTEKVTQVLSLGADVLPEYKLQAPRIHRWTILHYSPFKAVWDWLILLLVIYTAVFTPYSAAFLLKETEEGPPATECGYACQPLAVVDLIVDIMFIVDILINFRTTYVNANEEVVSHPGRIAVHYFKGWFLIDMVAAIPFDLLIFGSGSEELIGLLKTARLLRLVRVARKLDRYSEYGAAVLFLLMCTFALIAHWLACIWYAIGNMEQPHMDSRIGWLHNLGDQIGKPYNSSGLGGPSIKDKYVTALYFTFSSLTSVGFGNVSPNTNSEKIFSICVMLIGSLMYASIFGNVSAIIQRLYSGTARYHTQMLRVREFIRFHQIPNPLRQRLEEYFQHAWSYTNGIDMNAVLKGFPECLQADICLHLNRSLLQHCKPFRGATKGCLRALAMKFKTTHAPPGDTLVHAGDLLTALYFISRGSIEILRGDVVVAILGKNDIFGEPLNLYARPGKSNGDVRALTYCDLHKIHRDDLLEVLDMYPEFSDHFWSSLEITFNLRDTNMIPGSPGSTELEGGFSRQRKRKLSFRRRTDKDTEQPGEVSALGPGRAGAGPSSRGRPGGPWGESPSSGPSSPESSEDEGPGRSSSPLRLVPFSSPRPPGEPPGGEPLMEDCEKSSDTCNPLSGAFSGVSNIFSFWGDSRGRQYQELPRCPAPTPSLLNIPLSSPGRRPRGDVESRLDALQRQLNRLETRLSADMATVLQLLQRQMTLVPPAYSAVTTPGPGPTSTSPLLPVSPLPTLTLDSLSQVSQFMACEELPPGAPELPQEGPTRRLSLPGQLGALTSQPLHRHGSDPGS
valueType: Ki

Ask | Any idea what its Ki is? The compound is C#C[C@H]1CC[C@@H](C#N)N1C(=O)CNC1(C)CCN(c2cc(C(=O)O)ccn2)CC1
Reply | > 45.1 µM

---

Experiment: Volume of distribution in terminal phase in cynomolgus monkey at 2.5 mg/kg, iv
Type: ADME, organism-based, Macaca fascicularis
Design: dose 2.5 mg/kg, route intravenous
Conditions: in vivo, read-out: Vbeta
valueType: Vd
Include the unit after the number when you answer.

Ask | Any idea what its Vd is? The compound is C#C[C@H]1CC[C@@H](C#N)N1C(=O)CNC1(C)CCN(c2cc(C(=O)O)ccn2)CC1
Reply | 1.3 L/kg

---

Assay: Half life in Beagle dog at 2.5 mg/kg, po
Format: ADME, organism-based, Canis lupus familiaris
Design: dose 2.5 mg/kg, route oral
Details: in vivo
valueType: half-life
Include the unit after the number when you answer.

Ask | Any idea what its half-life is? The molecule is C#C[C@H]1CC[C@@H](C#N)N1C(=O)CNC1(C)CCN(c2cc(C(=O)O)ccn2)CC1
Reply | 5.3 h

---

Experiment: Oral bioavailability in Sprague-Dawley rat at 5 mg/kg, po
Assay type: ADME, organism-based
Conditions: in vivo
valueType: bioavailability (%)
Give bare numbers, in %.

Ask | Any idea what its bioavailability is? The compound is C#C[C@H]1CC[C@@H](C#N)N1C(=O)CNC1(C)CCN(c2cc(C(=O)O)ccn2)CC1
Reply | 28

---

Test: Volume of distribution in terminal phase in Beagle dog at 2.5 mg/kg, iv
Type: ADME, organism-based, Canis lupus familiaris
Set-up: dose 2.5 mg/kg, route intravenous
Conditions: in vivo, read-out: Vbeta
valueType: Vd
Include the unit after the number when you answer.

Ask | Any idea what its Vd is? The molecule is C#C[C@H]1CC[C@@H](C#N)N1C(=O)CNC1(C)CCN(c2cc(C(=O)O)ccn2)CC1
Reply | 8.5 L/kg
